System: AncSZ
Assay: phosphorylation enrichment, bacterial display (enrichment ratio); higher = better substrate or ligand; peptides without Tyr show the background;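 further: 11-residue human phosphosite peptides and single-mutation variants displayed on the E. coli surface, counted by deep sequencing, each peptide's frequency after selection divided by its frequency in the unselected input library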;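 further: frequency after pTyr selection over input frequency; kinase dosed for 20-30% of maximal phosphorylation in three min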
MEASURED_PROPERTY: phosphorylation enrichment
Numbers only.

The sequence EFGEVYKGTLK [EPHA2_Y628_M631T] showed phosphorylation enrichment equal to 0.603

The sequence AFLLLCFNDTH [BMP15_Y235_Y235C] showed phosphorylation enrichment equal to 1.42

The sequence GRLFAYPDTHR [CAT_Y358] showed phosphorylation enrichment equal to 0.641

The sequence AKKKMYSCKTK [AGXT_Y231_R233C] showed phosphorylation enrichment equal to 1.01

The sequence IIWDSYTTNKV [GNB1_Y85] showed phosphorylation enrichment equal to 1.2

The sequence EASEQYLTKAS [NRCAM_Y739] showed phosphorylation enrichment equal to 0.711

The sequence TFWKKYRTFWK [CCDC70_Y125] showed phosphorylation enrichment equal to 0.702

The sequence MENFIYESMQY [CYP19A1_Y361_R365Q] showed phosphorylation enrichment equal to 1.37

For every item below, please supply its phosphorylation enrichment.
1. QNKEDYDGLKE [GSTO1_Y139_A140D]
2. VQVAFYTMMMN [SPATA17_Y84_YF]
3. YSNKLHYQLEQ [PDPR_Y109_Y109H]
4. RESYKYLPSSL [CXXC1_Y218_F219L]
5. GMKIVYVYVKK [DNAI2_Y5_E2K]
6. KVNKIYYPDFI [LIG3_Y767]
7. LMLVLYGRIFR [HTR1A_Y215]

1. 1.83
2. 1.63
3. 1.12
4. 1.09
5. 1.11
6. 0.727
7. 1.84

====

Target: Fyn (UniProt P06241)
Sequence (P06241 whole entry, looked up): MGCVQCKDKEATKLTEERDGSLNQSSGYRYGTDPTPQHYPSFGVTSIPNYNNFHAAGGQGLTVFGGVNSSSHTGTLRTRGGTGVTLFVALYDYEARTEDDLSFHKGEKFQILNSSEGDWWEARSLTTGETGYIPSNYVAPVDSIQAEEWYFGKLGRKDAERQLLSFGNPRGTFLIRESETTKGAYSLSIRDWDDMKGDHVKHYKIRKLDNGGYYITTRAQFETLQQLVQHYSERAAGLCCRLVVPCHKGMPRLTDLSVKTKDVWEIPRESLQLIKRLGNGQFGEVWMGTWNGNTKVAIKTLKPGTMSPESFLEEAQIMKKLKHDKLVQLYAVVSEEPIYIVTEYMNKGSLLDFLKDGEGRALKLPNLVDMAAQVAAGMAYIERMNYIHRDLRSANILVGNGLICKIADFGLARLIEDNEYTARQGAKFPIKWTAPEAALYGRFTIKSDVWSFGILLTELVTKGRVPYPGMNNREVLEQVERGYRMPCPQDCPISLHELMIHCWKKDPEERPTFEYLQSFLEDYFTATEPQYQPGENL
Assay: phosphorylation enrichment, bacterial display (enrichment ratio); higher = better substrate or ligand; peptides without Tyr show the background
Assign phosphorylation enrichment to each entry below.
One number for each entry.

The sequence SHRQDYLVGNK [GSTA1_Y147_G144R] showed phosphorylation enrichment equal to 0.435

The sequence TLQWMYGCDVG [HLA-B_Y123_S121W] showed phosphorylation enrichment equal to 0.437

Then there is this sequence:
The sequence RSAGKDDVYLI [MECP2_Y120_Y120D] showed phosphorylation enrichment equal to 1.14

====

Assign phosphorylation enrichment to each entry below.
Target: Jak2 (UniProt O60674)
Sequence (O60674 whole entry, looked up): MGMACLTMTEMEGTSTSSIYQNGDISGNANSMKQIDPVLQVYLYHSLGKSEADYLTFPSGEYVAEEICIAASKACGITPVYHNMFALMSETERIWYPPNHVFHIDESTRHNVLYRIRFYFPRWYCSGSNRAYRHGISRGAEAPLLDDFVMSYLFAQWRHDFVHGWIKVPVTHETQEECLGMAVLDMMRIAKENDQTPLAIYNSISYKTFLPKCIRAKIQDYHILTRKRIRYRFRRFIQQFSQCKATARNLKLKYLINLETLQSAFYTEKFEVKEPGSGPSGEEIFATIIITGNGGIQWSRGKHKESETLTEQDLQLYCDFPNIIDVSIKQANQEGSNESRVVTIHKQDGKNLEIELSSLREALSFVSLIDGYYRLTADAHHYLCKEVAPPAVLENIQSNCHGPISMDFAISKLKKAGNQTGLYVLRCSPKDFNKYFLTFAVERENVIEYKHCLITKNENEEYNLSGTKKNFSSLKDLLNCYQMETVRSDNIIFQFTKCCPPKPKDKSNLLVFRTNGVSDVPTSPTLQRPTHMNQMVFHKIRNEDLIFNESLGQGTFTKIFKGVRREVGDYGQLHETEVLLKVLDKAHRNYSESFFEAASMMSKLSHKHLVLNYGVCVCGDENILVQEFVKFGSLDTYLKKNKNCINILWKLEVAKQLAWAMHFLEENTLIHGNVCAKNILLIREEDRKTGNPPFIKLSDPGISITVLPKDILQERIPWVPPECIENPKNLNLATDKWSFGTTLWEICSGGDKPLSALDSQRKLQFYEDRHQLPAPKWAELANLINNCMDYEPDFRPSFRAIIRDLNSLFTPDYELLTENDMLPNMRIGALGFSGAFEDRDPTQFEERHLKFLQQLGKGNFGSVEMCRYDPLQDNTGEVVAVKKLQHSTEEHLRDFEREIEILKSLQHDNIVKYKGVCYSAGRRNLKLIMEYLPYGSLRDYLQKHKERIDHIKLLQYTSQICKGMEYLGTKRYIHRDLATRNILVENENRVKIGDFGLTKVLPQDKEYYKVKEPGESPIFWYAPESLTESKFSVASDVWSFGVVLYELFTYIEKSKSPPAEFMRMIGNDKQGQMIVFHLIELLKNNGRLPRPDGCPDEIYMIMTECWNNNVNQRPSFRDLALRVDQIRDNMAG
Test: phosphorylation enrichment, bacterial display (enrichment ratio); higher = better substrate or ligand; peptides without Tyr show the background
Answers are plain numbers.

Considering DRFANYIEKVR [DES_Y122] , its phosphorylation enrichment with Jak2 (UniProt O60674) was recorded as 1.02

Considering SLAARYFNWVC [FLT4_Y1230_S1235C_YF] , its phosphorylation enrichment with Jak2 (UniProt O60674) was recorded as 0.997

Considering AEMTGYVVTRW [MAPK13_Y182] , its phosphorylation enrichment with Jak2 (UniProt O60674) was recorded as 1.34

For every item below, please supply its phosphorylation enrichment.
1. GVRLYYRVRES [RB1_Y454_M457R]
2. SVESPYGSVTF [NDRG2_Y47_T45S]
3. EVVGRYSVHNA [MLH1_Y183]
4. PGIRMYRVQFN [LRFN1_Y454_Q455R_YF]

0.964
0.572
0.698
0.844

For every item below, please supply its phosphorylation enrichment.
1. SLAARYYNWVS [FLT4_Y1230]
2. ETKRPYTVILI [SBDS_Y128]
3. SGFESYGSSSF [RPA2_Y9_YF]

1: 1.48; 2: 1.01; 3: 0.436
